- TARGET_UNDER_TEST: T1, human TSH receptor (full length), coated on tubes (human, UniProt P16473 22-764)
- T1 construct: TSHR coated tubes as described in WO2004/050708A2; The receptor is full length and held on plastic tubes through a mouse MAb to the TSHR; also called thyroid stimulating hormone receptor
- ASSAY_OVERVIEW: inhibition of 125I-K1-70 Fab (competitor) binding to TSHR coated tubes; 10 µg/mL in HBD serum pool

BINDER	MEASUREMENT_UNITS	Inhibition of binding (%)
K1-70 Fab (Fab, V domains shown) VH: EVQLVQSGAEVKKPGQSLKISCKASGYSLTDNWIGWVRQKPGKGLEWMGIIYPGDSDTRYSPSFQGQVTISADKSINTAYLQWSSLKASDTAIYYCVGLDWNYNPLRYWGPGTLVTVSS VL: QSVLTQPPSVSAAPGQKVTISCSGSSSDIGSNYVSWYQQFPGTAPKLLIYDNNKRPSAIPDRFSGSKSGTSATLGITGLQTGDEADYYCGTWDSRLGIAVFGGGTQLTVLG	%	94.8
K1-70 IgG (antibody, V domains shown, Human IgG1 lambda purified from hetero-hybridoma supernatant; also called human monoclonal autoantibody to the TSHR with TSH antagonist activity) VH: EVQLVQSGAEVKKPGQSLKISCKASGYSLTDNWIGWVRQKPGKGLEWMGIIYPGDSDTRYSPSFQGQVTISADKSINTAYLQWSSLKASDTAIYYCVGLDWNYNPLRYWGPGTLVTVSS VL: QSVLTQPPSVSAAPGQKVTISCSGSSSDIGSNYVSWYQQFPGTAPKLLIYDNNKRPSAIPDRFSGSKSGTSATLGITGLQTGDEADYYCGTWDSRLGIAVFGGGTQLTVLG	%	96.6
K1-18 IgG (antibody, V domains shown, Human IgG1 kappa purified from hetero-hybridoma supernatant; also called human monoclonal autoantibody to the TSHR with TSH agonist activity) VH: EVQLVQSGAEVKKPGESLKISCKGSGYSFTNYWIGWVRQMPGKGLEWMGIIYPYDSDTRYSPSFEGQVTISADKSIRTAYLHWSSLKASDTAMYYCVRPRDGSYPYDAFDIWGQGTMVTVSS VL: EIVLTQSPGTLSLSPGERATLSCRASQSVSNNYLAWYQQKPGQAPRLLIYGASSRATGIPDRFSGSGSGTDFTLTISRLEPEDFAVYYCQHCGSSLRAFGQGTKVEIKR	%	94.8
K1-18 Fab (Fab, V domains shown) VH: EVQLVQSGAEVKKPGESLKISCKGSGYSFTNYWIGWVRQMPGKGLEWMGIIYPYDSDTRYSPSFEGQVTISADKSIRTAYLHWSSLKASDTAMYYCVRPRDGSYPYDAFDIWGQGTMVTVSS VL: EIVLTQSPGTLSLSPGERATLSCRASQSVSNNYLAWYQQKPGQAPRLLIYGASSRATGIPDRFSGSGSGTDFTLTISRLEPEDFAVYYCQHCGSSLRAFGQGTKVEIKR	%	83.2

The measured values listed here are drawn from patent US20110300138A1.
